FYI, the data here is from ChEMBL document CHEMBL1817572.

Species on record: Homo sapiens
Experiment: Selectivity ratio of EC50 for human oxytocin receptor to EC50 for human vasopressin V1a receptor
Bridge positions count the residues as written; N and C are the ends. Square brackets hold non-standard residues; d marks the D form. Peptide text beside a SMILES is read from it. * marks the point of attachment. Ala(2-furyl) = N[C@@H](Cc1ccco1)C(=O)O; 2Thi = N[C@@H](Cc1cccs1)C(=O)O; 3Thi = N[C@@H](Cc1ccsc1)C(=O)O; Cha = N[C@@H](CC1CCCCC1)C(=O)O; NH(3-hydroxypropyl) = OCCCN*; Orn = NCCC[C@H](N)C(=O)O; Dab = NCC[C@H](N)C(=O)O; Dap = NC[C@H](N)C(=O)O; NHOH = ON*
metricName: Ratio EC50

Problem: Identify the reported Ratio EC50 for the following entry. CC[C@H](C)[C@@H]1NC(=O)[C@H](CC2CCCCC2)NC(=O)[C@@H](N)CSSC[C@@H](C(=O)N2CCC[C@H]2C(=O)N[C@@H](CCN)C(=O)NCC(N)=O)NC(=O)[C@H](CC(N)=O)NC(=O)[C@H](CCC(N)=O)NC1=O (H-C[Cha]IQNCP[Dab]G-NH2; disulfide 1-6)
Solution: > 40000

Problem: Identify the reported Ratio EC50 for the following entry. CC[C@H](C)[C@@H]1NC(=O)[C@H](Cc2ccccc2)NC(=O)[C@@H](N)CSSC[C@@H](C(=O)N2CCC[C@H]2C(=O)N[C@@H](CCCN)C(=O)NCC(N)=O)NC(=O)[C@H](CC(N)=O)NC(=O)[C@H](CCC(=O)NO)NC1=O (H-CFIE(NHOH)NCP[Orn]G-NH2; disulfide 1-6)
Solution: > 830

Problem: Identify the reported Ratio EC50 for the following entry. CC[C@H](C)[C@@H]1NC(=O)[C@H](Cc2ccccc2)NC(=O)[C@@H](N)CSSC[C@@H](C(=O)N2CCC[C@H]2C(=O)N[C@@H](CCCN)C(=O)NCC(N)=O)NC(=O)[C@H](CC(N)=O)NC(=O)[C@H](CC(=O)NCCCO)NC1=O (H-CFID(NH(3-hydroxypropyl))NCP[Orn]G-NH2; disulfide 1-6)
Solution: > 4700

Problem: Identify the reported Ratio EC50 for the following entry. CC[C@H](C)[C@@H]1NC(=O)[C@H](Cc2ccccc2)NC(=O)[C@@H](N)CSSC[C@@H](C(=O)N2CCC[C@H]2C(=O)N[C@@H](CN)C(=O)NCC(N)=O)NC(=O)[C@H](CC(N)=O)NC(=O)[C@H](CCC(N)=O)NC1=O (H-CFIQNCP[Dap]G-NH2; disulfide 1-6)
Solution: > 330

Problem: Identify the reported Ratio EC50 for the following entry. CC[C@H](C)[C@@H]1NC(=O)[C@H](Cc2ccco2)NC(=O)[C@@H](N)CSSC[C@@H](C(=O)N2CCC[C@H]2C(=O)N[C@@H](CCCN)C(=O)NCC(N)=O)NC(=O)[C@H](CC(N)=O)NC(=O)[C@H](CC(N)=O)NC1=O (H-C[Ala(2-furyl)]INNCP[Orn]G-NH2; disulfide 1-6)
Solution: > 1000

Problem: Identify the reported Ratio EC50 for the following entry. CC[C@H](C)[C@@H]1NC(=O)[C@H](Cc2ccsc2)NC(=O)[C@@H](N)CSSC[C@@H](C(=O)N2CCC[C@H]2C(=O)N[C@@H](CCN)C(=O)NCC(N)=O)NC(=O)[C@H](CC(N)=O)NC(=O)[C@H](CCC(N)=O)NC1=O (H-C[3Thi]IQNCP[Dab]G-NH2; disulfide 1-6)
Solution: 49

Problem: Identify the reported Ratio EC50 for the following entry. CC[C@H](C)[C@@H]1NC(=O)[C@H](Cc2cccs2)NC(=O)[C@@H](N)CSSC[C@@H](C(=O)N2CCC[C@H]2C(=O)N[C@@H](CCCN)C(=O)NCC(N)=O)NC(=O)[C@H](CC(N)=O)NC(=O)[C@H](CC(N)=O)NC1=O (H-C[2Thi]INNCP[Orn]G-NH2; disulfide 1-6)
Solution: > 660
